Tested on: rat aorta rings pretreated with 8-iso-prostaglandin F2α
assay_notes: Relaxation of rat aortic rings using 8-iso-prostaglandin F2α 1 μM as contracting agent
Format: cell-based
experimental_parameters: together with 10^−6 M nafronyl oxalate

molecule | assay_target | EC50 (µM)
COc1ccc(C(=O)NCc2cccnc2)cc1C(=O)NCc1cccnc1 [Picotamide monohydrate] | rat aorta rings pretreated with 8-iso-prostaglandin F2α | 2.34

Data provenance: patent US20090004121A1
